MEASUREMENT TARGET: Nuclear receptor subfamily 1 group I member 2 (Rattus norvegicus) (UniProt Q9R1A7)
Sequence (Q9R1A7 whole entry, looked up): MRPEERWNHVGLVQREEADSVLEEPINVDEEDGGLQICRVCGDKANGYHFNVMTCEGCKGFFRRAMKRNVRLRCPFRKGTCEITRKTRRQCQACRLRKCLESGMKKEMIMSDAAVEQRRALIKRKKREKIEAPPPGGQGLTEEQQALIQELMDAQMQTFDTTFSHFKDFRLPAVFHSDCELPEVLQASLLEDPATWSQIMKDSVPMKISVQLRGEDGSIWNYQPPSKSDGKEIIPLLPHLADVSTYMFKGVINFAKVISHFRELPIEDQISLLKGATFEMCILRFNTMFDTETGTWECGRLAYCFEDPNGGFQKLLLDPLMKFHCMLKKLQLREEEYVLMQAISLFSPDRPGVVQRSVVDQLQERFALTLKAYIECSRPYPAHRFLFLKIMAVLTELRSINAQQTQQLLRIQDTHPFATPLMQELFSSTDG
PROTOCOL DETAILS: Rat pregnane X receptor (rPXR) activation by small molecules, qHTS assay (AID 1346983); further: on the % scale 0 is the no-effect control and ±100 the full control effect; nearly all actives have a fitted effect of over 20% in size
ASSAY SETUP: rPXR luciferase reporter cells, One-Glo luminescence, 24 h; hits give high values
Results filed as inconclusive are left out.
READOUT LABEL: max activation (%)
Provide the reading as a plain figure in %.

[[record]]
compound = "S=C(S)N1CCNCC1"
readout_label = "max activation"
uom = "%"
value_measured = -2.4

[[record]]
compound = "CC(=O)O[C@H]1C[C@H](O[C@H]2[C@@H](O)C[C@H](O[C@H]3[C@@H](O)C[C@H](O[C@H]4CC[C@@]5(C)[C@H](CC[C@@H]6[C@@H]5C[C@@H](O)[C@]5(C)[C@@H](C7=CC(=O)OC7)CC[C@]65O)C4)O[C@@H]3C)O[C@@H]2C)O[C@H](C)[C@H]1O[C@@H]1O[C@H](CO)[C@@H](O)[C@H](O)[C@H]1O"
readout_label = "max activation"
uom = "%"
value_measured = 4.17

[[record]]
compound = "CC(=O)O[C@H]1CC[C@H]2[C@@H]3CCC4=CC(=O)CCC4=C3C=C[C@]12C"
readout_label = "max activation"
uom = "%"
value_measured = -1.98


Qu. For the compound shown here, `CCCCCN(C)CCC(O)(P(=O)(O)O)P(=O)(O)O` , give the reported max activation.
Ans. -1.96

Qu. Try the compound `CC(C)[C@@]1(NC(=O)[C@@H]2C[C@@H]3c4cccc5[nH]cc(c45)C[C@H]3N(C)C2)O[C@@]2(O)[C@@H]3CCCN3C(=O)[C@H](Cc3ccccc3)N2C1=O`
Ans. -8.17

Qu. Try the compound `C[C@@H](Cc1ccccc1)N(C)C`
Ans. -2.61

Qu. Try the compound `CCC1(CC)C(=O)NC(=O)N(C)C1=O`
Ans. -3.02

Qu. Try the compound `C[C@H]1CC[C@]2(NC1)O[C@H]1C[C@H]3[C@@H]4CC[C@H]5C[C@@H](O)CC[C@]5(C)[C@H]4CC[C@]3(C)[C@H]1[C@@H]2C`
Ans. 11.8

* * *

MEASUREMENT TARGET: Acetylcholinesterase (Homo sapiens) (UniProt P22303)
Sequence (P22303 whole entry, looked up): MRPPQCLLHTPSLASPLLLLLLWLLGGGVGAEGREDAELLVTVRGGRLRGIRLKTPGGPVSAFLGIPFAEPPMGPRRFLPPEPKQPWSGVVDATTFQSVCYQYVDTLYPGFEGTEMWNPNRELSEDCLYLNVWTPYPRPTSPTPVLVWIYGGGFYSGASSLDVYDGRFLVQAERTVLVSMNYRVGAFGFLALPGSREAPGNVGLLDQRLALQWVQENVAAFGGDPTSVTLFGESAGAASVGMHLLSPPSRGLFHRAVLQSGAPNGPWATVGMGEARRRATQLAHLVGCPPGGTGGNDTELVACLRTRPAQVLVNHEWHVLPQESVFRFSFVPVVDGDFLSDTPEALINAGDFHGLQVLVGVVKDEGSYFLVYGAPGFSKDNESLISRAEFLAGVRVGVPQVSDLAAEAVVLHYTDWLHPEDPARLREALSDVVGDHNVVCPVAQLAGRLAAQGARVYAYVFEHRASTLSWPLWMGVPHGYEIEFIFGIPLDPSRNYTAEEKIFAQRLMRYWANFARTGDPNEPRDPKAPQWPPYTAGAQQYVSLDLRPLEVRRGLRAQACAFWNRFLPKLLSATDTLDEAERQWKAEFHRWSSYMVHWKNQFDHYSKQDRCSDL
PROTOCOL DETAILS: Acetylcholinesterase (AChE) small molecule antagonists: enzyme-based qHTS assay with human liver microsomes (AID 1347399); further: on the % scale 0 is the no-effect control and ±100 the full control effect; nearly all actives have a fitted effect of over 60% in size
ASSAY SETUP: qHTS inhibition; series mostly up to 115 µM
Active and inactive are the calls of the source. Calls come from the whole dose curve.
READOUT LABEL: outcome

[[record]]
compound = "Cc1cccc(NC(=S)N(C)C)c1"
value_measured = "inactive"

[[record]]
compound = "CCCCCCCCCC(=O)O"
value_measured = "inactive"

[[record]]
compound = "O=C(OCCOCCOCCOC(=O)c1ccccc1)c1ccccc1"
value_measured = "inactive"

[[record]]
compound = "CC(C)(C)C(=O)c1ccccc1"
value_measured = "inactive"


Qu. For the compound shown here, `CN(C)C=O` , give the reported outcome.
Ans. inactive

Qu. Try the compound CCCCC(CC)CN1CN(CC(CC)CCCC)CC(C)(N)C1 (stereo unspecified)
Ans. inactive

* * *

PROTOCOL DETAILS: qHTS assay to identify small molecule antagonists of the androgen receptor (AR) signaling pathway - cell viability counter screen (AID 743033; further: nearly all actives have a fitted effect of over 45% in size)
ASSAY SETUP: AR-bla HEK293 viability, CellTiter-Glo luminescence, 16 h; series mostly up to 58.5 µM
Results filed as inconclusive are left out. Active and inactive are the calls of the source. Calls come from the whole dose curve; as a rule, active = well fitted cell-killing curve with a large enough effect in the repeat runs; inconclusive = weak or mixed curves; inactive = no such curve, though single readings can be large or run the other way.
Return exactly one item of t = active, f = inactive

Answered cases to consult:
[[record]]
molecule = "Oc1cccc[c]1[Hg][Cl]"
class = "t"

[[record]]
molecule = "COc1ccc(OC)c([C@@H](O)[C@H](C)N)c1"
class = "f"

[[record]]
molecule = "COC(=O)[C@H]1[C@@H](OC(=O)c2ccccc2)C[C@@H]2CC[C@H]1N2C"
class = "f"

[[record]]
molecule = "CC(=O)O[C@H]1C[C@H](O[C@H]2[C@@H](O)C[C@H](O[C@H]3[C@@H](O)C[C@H](OC4CC[C@@]5(C)[C@H](CC[C@@H]6[C@@H]5CC[C@]5(C)[C@@H](C7=CC(=O)OC7)CC[C@]65O)C4)O[C@@H]3C)O[C@@H]2C)O[C@H](C)[C@H]1O[C@@H]1O[C@H](CO)[C@@H](O)[C@H](O)[C@H]1O (stereo not given in full)"
class = "t"

[[record]]
molecule = "c1csc(C2(N3CCCCC3)CCCCC2)c1"
class = "f"

[[record]]
molecule = "NC(=O)CN1CC(O)CC1=O (stereo not given)"
class = "f"

[[record]]
molecule = "CCNCC(O)c1cccc(O)c1 (stereo not given)"
class = "f"

[[record]]
molecule = "C[C@]12CC[C@H](O)C[C@H]1CC[C@@H]1[C@@H]2CC[C@]2(C)[C@@H](c3ccc(=O)oc3)C[C@H]3O[C@]132"
class = "t"

[[record]]
molecule = "COC1=CC=C2[C@H]3Cc4ccc(OC)c5c4[C@@]2(CCN3C)[C@H]1O5"
class = "f"


Qu. Per the records of this test, what outcome belongs to CC(Cc1ccccc1)NC=O (stereo not given) ?
Ans. f

* * *

MEASUREMENT TARGET: Acetylcholinesterase (Homo sapiens) (UniProt P22303)
PROTOCOL DETAILS: Acetylcholinesterase (AChE) small molecule antagonists: enzyme-based qHTS assay with human liver microsomes (AID 1347399); further: on the % scale 0 is the no-effect control and ±100 the full control effect; nearly all actives have a fitted effect of over 60% in size
ASSAY SETUP: qHTS inhibition; series mostly up to 115 µM
Description: National Center for Advancing Translational Sciences [NCATS] Division of Preclinical Innovation [DPI] U.S. Environmental Protection Agency [EPA] National Institutes of Environmental Health Sciences [NIEHS] National Toxicology Program [NTP] U.S. Food and Drug Administration [FDA] Acetylcholinesterase (AChE) is the primary cholinesterase in the body that hydrolyzes a key neurotransmitter, acetylcholine. Inhibition of AChE activity can lead to neurotoxicity. […]
The source made the active and inactive calls. The call rests on the fitted dose curve.
READOUT LABEL: outcome

Use the examples below as a reference point.
[[record]]
molecule = "CC(C)OP(=O)(CP(=O)(OC(C)C)OC(C)C)OC(C)C"
readout_label = "outcome"
value_measured = "inactive"

[[record]]
molecule = "O=S(=O)(O)CC(O)CCl (stereo not drawn)"
readout_label = "outcome"
value_measured = "inactive"

[[record]]
molecule = "C=C(C)C(=O)OCCC[Si](OC)(OC)OC"
readout_label = "outcome"
value_measured = "inactive"

[[record]]
molecule = "COC(=O)CCC(=O)OC"
readout_label = "outcome"
value_measured = "inactive"


As a next step, examine the molecule that follows.
Qu. GET /values?readout=outcome&system=Acetylcholinesterase (Homo sapiens) (UniProt P22303)&item= `O=c1c(O)c(-c2ccc(O)c(O)c2)oc2cc(O)cc(O)c12`
Ans. inactive

* * *

PROTOCOL DETAILS: qHTS assay to identify small molecule antagonists of the retinoid acid receptor (RAR) signaling pathway - cell viability counter screen (AID 1159551); further: on the % scale 0 is the no-effect control and ±100 the full control effect; nearly all actives have a fitted effect of over 35% in size
ASSAY SETUP: C3RL4 cells viability, ATP luminescence (CellTiter-Glo), 6 h; series mostly up to 92.4 µM
Results filed as inconclusive are left out. Activity calls are given as the source filed them. Calls come from the whole dose curve; as a rule, active = well fitted cell-killing curve with a large enough effect in the repeat runs; inconclusive = weak or mixed curves, or effect the other way; inactive = flat fitted curve, though single readings scatter.
READOUT LABEL: outcome

[[record]]
molecule = "O=[N+]([O-])c1c(Cl)c(Cl)cc(Cl)c1Cl"
value_measured = "inactive"

[[record]]
molecule = "CC1COC(Cn2cncn2)(c2ccc(Oc3ccc(Cl)cc3)cc2Cl)O1 (stereo not drawn)"
value_measured = "inactive"

[[record]]
molecule = "COc1cc(OC)c(OC)cc1C=O"
value_measured = "inactive"


* * *

PROTOCOL DETAILS: qHTS assay to identify small molecule antagonists of the estrogen related receptor (ERR) signaling pathway (AID 1224819;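 further: luminescence from an ERR-driven luciferase reporter measured with One-Glo reagent; on the % scale 0 is the no-effect control and ±100 the full control effect; nearly all actives have a fitted effect of over 50% in size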)
ASSAY SETUP: ERR reporter cell line, luciferase inhibition; series mostly up to 46.1 µM
Results filed as inconclusive are left out. The source made the active and inactive calls. Calls come from the whole dose curve; as a rule, active = well fitted inhibition curve with a large enough effect in the repeat runs; inconclusive = weak or mixed curves; inactive = no such curve, though single readings can be large or run the other way.
Return exactly one item of y = active, n = inactive

[[record]]
compound = "NC(N)=NOCCC(N)C(=O)O (configuration not stated)"
class = "n"

[[record]]
compound = "C[N+]1(C)CCC(OC(=O)C(c2ccccc2)c2ccccc2)CC1"
class = "n"

[[record]]
compound = "O=C(O)Cc1cnc[nH]1"
class = "n"


Qu. Per the records of this test, what outcome belongs to CS(=N)(=O)CC[C@H](N)C(=O)O (some centres not stated) ?
Ans. n

Qu. Try the compound `CCCN(CCC)CCc1ccc(O)c(O)c1`
Ans. n

Qu. Try the compound `N[C@@H](Cn1oc(=O)[nH]c1=O)C(=O)O`
Ans. n

* * *

PROTOCOL DETAILS: qHTS assay for identifying genotoxic compounds that show differential cytotoxicity against isogenic chicken DT40 cell lines with known DNA damage response pathways - Rad54/Ku70 mutant cell line (AID 743015); further: nearly all actives have a fitted effect of over 60% in size; further: potency means the concentration at half of the fitted maximal effect
ASSAY SETUP: DT40 Rad54/Ku70 mutant viability, CellTiter-Glo, 40 h; series mostly up to 66.8 µM
Records with an inconclusive call do not appear. Active and inactive are the calls of the source. Calls come from the whole dose curve; as a rule, active = well fitted cell-killing curve with a large enough effect in the repeat runs; inconclusive = weak or mixed curves; inactive = no such curve, though single readings can be large or run the other way.
READOUT LABEL: Potency

[[record]]
molecule = "COC(=O)[C@H]1[C@@H](OC(=O)c2ccccc2)C[C@@H]2CC[C@H]1N2C"
value_measured = "inactive"

[[record]]
molecule = "CCCCNCC(O)c1ccc(O)cc1 (centres undefined)"
value_measured = "inactive"

[[record]]
molecule = "CC(C)(O)[C@@H]1[C@H]2OC(=O)[C@@H]1[C@]1(O)C[C@H]3O[C@]34C(=O)O[C@H]2[C@]14C"
value_measured = "inactive"

[[record]]
molecule = "CC(C)C[C@H]1C(=O)N2CCC[C@H]2[C@]2(O)O[C@](NC(=O)[C@@H]3C[C@@H]4c5cccc6[nH]cc(c56)C[C@H]4N(C)C3)(C(C)C)C(=O)N12"
value_measured = "29.8 µM (active)"

